What pKi was measured for each of the following?
Molecular target: Serotonin 3 (5-HT3) receptor (Rattus norvegicus, UniProt P35563+Q9JJ16)
Sequence (P35563 whole entry): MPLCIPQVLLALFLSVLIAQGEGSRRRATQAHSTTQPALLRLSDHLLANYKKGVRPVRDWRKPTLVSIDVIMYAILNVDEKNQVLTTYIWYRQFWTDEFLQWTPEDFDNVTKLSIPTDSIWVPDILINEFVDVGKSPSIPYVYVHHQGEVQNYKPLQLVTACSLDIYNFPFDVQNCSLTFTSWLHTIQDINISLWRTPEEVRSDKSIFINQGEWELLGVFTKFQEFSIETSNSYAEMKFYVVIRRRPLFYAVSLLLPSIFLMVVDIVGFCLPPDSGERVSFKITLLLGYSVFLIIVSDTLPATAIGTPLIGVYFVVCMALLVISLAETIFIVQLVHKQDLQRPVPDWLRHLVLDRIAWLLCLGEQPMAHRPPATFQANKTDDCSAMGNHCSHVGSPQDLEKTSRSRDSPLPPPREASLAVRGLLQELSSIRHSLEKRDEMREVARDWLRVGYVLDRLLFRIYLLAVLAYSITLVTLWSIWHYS
Sequence (Q9JJ16 whole entry): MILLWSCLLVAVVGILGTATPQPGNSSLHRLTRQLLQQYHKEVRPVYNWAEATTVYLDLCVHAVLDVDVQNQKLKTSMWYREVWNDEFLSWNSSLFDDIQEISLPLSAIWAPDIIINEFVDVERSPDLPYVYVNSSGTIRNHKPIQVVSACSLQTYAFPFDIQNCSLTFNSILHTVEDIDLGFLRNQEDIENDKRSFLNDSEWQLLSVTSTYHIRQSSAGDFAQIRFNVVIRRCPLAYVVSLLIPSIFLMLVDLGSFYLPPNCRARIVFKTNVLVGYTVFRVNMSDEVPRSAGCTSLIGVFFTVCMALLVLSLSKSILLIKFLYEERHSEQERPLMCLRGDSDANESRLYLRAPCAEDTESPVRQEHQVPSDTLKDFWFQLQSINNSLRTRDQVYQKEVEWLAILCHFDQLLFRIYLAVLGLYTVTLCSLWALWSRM
Assay: In vitro affinity at serotonergic 5-hydroxytryptamine 3 receptor by radioligand binding assay, using [3H]-LY 278584 in rat cerebral cortex membranes.
Assay type: cell membranes
Keep it numeric: pKi is minus log10 of the concentration in mol/L.

Q: Identify measured pKi corresponding to O=C(NC1CN2CCC1CC2)c1cc(Cl)c([N+](=O)[O-])c2nc[nH]c12 (stereo unspecified)
A: 8.28

Q: Retrieve pKi measured for CN1C2CCCC1CC(NC(=O)c1cccc3[nH]cnc13)C2 (stereo unspecified) and print it.
A: 6.64

Q: Provide only the value of recorded pKi for Nc1c(Cl)cc(C(=O)NC2CN3CCC2CC3)c2[nH]cnc12 (stereo unspecified)
A: 9.62

Q: In one line, give reported pKi of the entry CN1C2CCC1CC(NC(=O)c1cccc3[nH]cnc13)C2 (stereo unspecified) .
A: 6.93

Q: Consider the compound O=C(NC1CN2CCC1CC2)c1cc(Br)cc2nc[nH]c12 (stereo unspecified) . State its measured pKi.
A: 9.54

Q: Please report the measured pKi for `O=C(N[C@H]1CN2CCC1CC2)c1cc(Cl)cc2nc[nH]c12`
A: 9.12

Q: For the compound CN1C2CCCC1CC(NC(=O)c1cc(Cl)cc3nc[nH]c13)C2 (stereo unspecified) , give its reported pKi.
A: 7.08

Q: State, in one line, measured pKi of CN1C2CCCC1CC(OC(=O)c1cc(Cl)cc3[nH]cnc13)C2 (stereo unspecified)
A: 7.05

Q: Indicate its recorded pKi; the compound in question is CN1C2CCC1CC(OC(=O)c1cc(Cl)cc3[nH]cnc13)C2 (stereo unspecified)
A: 7.21

Q: Provide one value: measured pKi of O=C(NC1CN2CCC1CC2)c1cc(Br)c([N+](=O)[O-])c2nc[nH]c12 (stereo unspecified)
A: 8.06

Q: Return reported pKi. Input compound: CN1C2CCC1CC(NC(=O)c1cc(Cl)cc3nc[nH]c13)C2 (stereo unspecified)
A: 7.78

---

Target: Serotonin 3 (5-HT3) receptor (Rattus norvegicus, UniProt P35563+Q9JJ16)
Test: In vitro affinity at serotonergic 5-hydroxytryptamine 3 receptor by radioligand binding assay, using [3H]-LY 278584 in rat cerebral cortex membranes.
Format: cell membranes
Cut-off 2 nM on Ki: below means Met, at or above means Not met.

Q: Dear reviewer, please state whether `O=C(N[C@@H]1CN2CCC1CC2)c1cc(Cl)c([N+](=O)[O-])c2nc[nH]c12` has Ki strictly beneath 2 nM.
A: Met

Q: Criterion: Ki strictly below 2 nM. Is it met by CCC1CCN(C)C[C@@H]1NC(=O)c1cccc2nc[nH]c12 (stereo partly drawn) ?
A: Not met

Q: State whether 2 nM exceeds Ki recorded for Nc1c(Br)cc(C(=O)NC2CN3CCC2CC3)c2[nH]cnc12 (stereo not drawn) .
A: Met

Q: Does `O=C(N[C@H]1CN2CCC1CC2)c1cc(Br)cc2nc[nH]c12` have Ki strictly under 2 nM?
A: Not met

Q: A record lists `O=C(N[C@@H]1CN2CCC1CC2)c1cc(Cl)cc2nc[nH]c12` . Is its Ki below 2 nM?
A: Met

Q: Regarding CCC1CCN(C)C[C@H]1NC(=O)c1cccc2[nH]cnc12 (stereo partly drawn) , kindly confirm whether its Ki is beneath 2 nM.
A: Not met

Q: Is Ki of Nc1ccc(C(=O)NC2CN3CCC2CC3)c2[nH]cnc12 (stereo not drawn) strictly below 2 nM?
A: Not met

Q: Here's an entry: `O=C(N[C@@H]1CN2CCC1CC2)c1cc(Br)cc2nc[nH]c12` . Is its Ki below 2 nM?
A: Met

---

MEASURED ENDPOINT: pKi
// pKi is dimensionless: -log10 of concentration (M)

Q: Consider the molecule `O=C(N[C@H]1CN2CCC1CC2)c1cc(Br)cc2nc[nH]c12` tested on 5-hydroxytryptamine receptor 4 (Rattus norvegicus, UniProt Q62758); state its pKi.
Sequence (Q62758 whole entry): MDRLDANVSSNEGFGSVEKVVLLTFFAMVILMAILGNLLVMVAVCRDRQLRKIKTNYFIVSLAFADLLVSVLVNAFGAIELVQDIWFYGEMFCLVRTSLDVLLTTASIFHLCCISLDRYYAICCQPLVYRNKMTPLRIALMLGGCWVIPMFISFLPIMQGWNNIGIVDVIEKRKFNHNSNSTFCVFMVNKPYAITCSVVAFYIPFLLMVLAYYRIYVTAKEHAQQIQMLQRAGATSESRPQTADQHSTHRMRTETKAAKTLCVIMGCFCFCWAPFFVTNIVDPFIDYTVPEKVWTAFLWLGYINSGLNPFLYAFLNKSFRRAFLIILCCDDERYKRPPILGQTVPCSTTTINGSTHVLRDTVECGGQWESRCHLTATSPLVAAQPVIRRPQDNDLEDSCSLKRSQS
A: 6.57

Q: Give pKi; test system 5-hydroxytryptamine receptor 4 (Rattus norvegicus, UniProt Q62758); molecule Nc1ccc(C(=O)NC2CN3CCC2CC3)c2[nH]cnc12 (stereo unspecified)
A: 6.11

Q: Under 5-hydroxytryptamine receptor 4 (Rattus norvegicus, UniProt Q62758): report pKi of `O=C(N[C@H]1CN2CCC1CC2)c1cc(Cl)cc2nc[nH]c12` .
A: 6.69

Q: Report its pKi with 5-hydroxytryptamine receptor 4 (Rattus norvegicus, UniProt Q62758) as the test system: `O=C(N[C@@H]1CN2CCC1CC2)c1cc(Br)cc2nc[nH]c12`
A: 7.42

Q: Using 5-hydroxytryptamine receptor 4 (Rattus norvegicus, UniProt Q62758) as the test system, report measured pKi of Nc1c(Cl)cc(C(=O)NC2CN3CCC2CC3)c2[nH]cnc12 (stereo unspecified) .
A: 6.73

Q: Name the value of pKi reported for CN1C2CCC1CC(OC(=O)c1cc(Cl)cc3[nH]cnc13)C2 (stereo unspecified) when tested on 5-hydroxytryptamine receptor 4 (Rattus norvegicus, UniProt Q62758).
A: 6.45

---

Please provide measured pKi for the entries that follow.
Target: 5-hydroxytryptamine receptor 4 (Rattus norvegicus, UniProt Q62758)
pKi: −log10 of the molar value.

Q: Consider the compound O=C(NC1CN2CCC1CC2)c1cc(Br)c([N+](=O)[O-])c2nc[nH]c12 (stereo not given) tested on 5-hydroxytryptamine receptor 4 (Rattus norvegicus, UniProt Q62758); state its pKi.
A: < 5.00

Q: Specify pKi for `O=C(N[C@@H]1CN2CCC1CC2)c1cc(Cl)cc2nc[nH]c12` , system 5-hydroxytryptamine receptor 4 (Rattus norvegicus, UniProt Q62758).
A: < 5.00

Q: Give 5-hydroxytryptamine receptor 4 (Rattus norvegicus, UniProt Q62758) pKi for the following compound: O=C(NC1CN2CCC1CC2)c1cc(Cl)c([N+](=O)[O-])c2nc[nH]c12 (stereo not given)
A: < 6.00

Q: Tell me pKi of CN1C2CCC1CC(NC(=O)c1cc(Cl)cc3nc[nH]c13)C2 (stereo not given) when tested on 5-hydroxytryptamine receptor 4 (Rattus norvegicus, UniProt Q62758).
A: 6.50

Q: Provide pKi, system 5-hydroxytryptamine receptor 4 (Rattus norvegicus, UniProt Q62758), entry `O=C(N[C@@H]1CN2CCC1CC2)c1cc(Cl)c([N+](=O)[O-])c2nc[nH]c12`
A: < 6.00

Q: State recorded pKi with 5-hydroxytryptamine receptor 4 (Rattus norvegicus, UniProt Q62758), entry CCC1CCN(C)C[C@H]1NC(=O)c1cccc2[nH]cnc12 (stereo not given in full) , no comment.
A: < 6.00

Q: Report the value of pKi obtained on 5-hydroxytryptamine receptor 4 (Rattus norvegicus, UniProt Q62758) for Nc1c(Br)cc(C(=O)NC2CN3CCC2CC3)c2[nH]cnc12 (stereo not given) .
A: 6.64

Q: For 5-hydroxytryptamine receptor 4 (Rattus norvegicus, UniProt Q62758), give the measured pKi of the entry CN1C2CCC1CC(OC(=O)c1cccc3[nH]cnc13)C2 (stereo in doubt; 23)
A: < 5.00

Q: Give pKi only, for CN1C2CCCC1CC(NC(=O)c1nn(C)c3ccccc13)C2 (stereo not given) , using 5-hydroxytryptamine receptor 4 (Rattus norvegicus, UniProt Q62758) data.
A: < 6.00

Q: Give pKi; test system 5-hydroxytryptamine receptor 4 (Rattus norvegicus, UniProt Q62758); compound O=C(NC1CN2CCC1CC2)c1cc(Br)cc2nc[nH]c12 (stereo not given)
A: 6.77
